target: Insulin receptor (Homo sapiens) (UniProt P06213); assay: Inhibition of human active insulin receptor tyrosine kinase domain (amino acids 1005 to 1310) assessed as residual autophosphorylation level at 400 uM using 1000 uM ATP and insulin by BCIP/NBT staining based colorimetry and immunoblotting
Sequence (P06213 28-758 limits assumed): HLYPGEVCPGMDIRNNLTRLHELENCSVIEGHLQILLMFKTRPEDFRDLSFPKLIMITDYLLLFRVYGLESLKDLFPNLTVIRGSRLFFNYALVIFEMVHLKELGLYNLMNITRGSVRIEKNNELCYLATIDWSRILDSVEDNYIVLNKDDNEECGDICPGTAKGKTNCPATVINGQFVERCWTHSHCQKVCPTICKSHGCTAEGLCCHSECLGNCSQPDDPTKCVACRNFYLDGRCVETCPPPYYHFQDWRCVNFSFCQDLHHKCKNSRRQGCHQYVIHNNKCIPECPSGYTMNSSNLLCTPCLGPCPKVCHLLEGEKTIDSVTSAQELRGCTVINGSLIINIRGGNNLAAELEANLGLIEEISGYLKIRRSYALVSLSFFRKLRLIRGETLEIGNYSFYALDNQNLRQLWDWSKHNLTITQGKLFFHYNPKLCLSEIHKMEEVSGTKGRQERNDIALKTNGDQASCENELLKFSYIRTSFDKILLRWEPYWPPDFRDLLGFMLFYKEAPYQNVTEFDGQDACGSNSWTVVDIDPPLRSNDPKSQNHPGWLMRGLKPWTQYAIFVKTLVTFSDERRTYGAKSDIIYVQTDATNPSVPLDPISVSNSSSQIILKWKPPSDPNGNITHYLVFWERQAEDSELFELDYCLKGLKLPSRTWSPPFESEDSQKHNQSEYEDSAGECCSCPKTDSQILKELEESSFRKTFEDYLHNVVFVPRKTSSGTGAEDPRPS
Sequence (P06213 763-1382 limits assumed): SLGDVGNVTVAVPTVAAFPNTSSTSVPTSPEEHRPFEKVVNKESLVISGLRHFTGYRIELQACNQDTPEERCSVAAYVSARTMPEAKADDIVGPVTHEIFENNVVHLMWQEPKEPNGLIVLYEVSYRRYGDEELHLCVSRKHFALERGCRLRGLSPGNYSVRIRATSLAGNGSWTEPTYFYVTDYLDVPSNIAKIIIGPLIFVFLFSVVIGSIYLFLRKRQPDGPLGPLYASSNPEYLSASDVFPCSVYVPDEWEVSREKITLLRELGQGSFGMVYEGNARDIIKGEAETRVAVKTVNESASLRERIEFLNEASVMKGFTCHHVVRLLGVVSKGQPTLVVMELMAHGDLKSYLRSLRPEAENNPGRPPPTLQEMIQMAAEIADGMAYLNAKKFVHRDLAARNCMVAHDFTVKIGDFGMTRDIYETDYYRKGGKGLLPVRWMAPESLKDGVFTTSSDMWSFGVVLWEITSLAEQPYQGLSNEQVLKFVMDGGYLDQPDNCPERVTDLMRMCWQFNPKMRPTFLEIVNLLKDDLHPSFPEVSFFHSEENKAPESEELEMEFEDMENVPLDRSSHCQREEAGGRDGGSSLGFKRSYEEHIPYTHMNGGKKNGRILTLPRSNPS
Starred links: 1 amine or outer side, 2 acyl side, 3 side chain; linkers in the order of their positions; H or OH if unused. Non-standard residues stand in square brackets, D forms with d. Residues, ends and D or L forms follow the SMILES beside them. azaTyr = O=C(N(Cc1ccc(O)cc1)N[*:1])[*:2]; X1 = O=C(N(Cc1ccc(O)c(O)c1)N[*:1])[*:2]; azaPhe = O=C(N(Cc1ccccc1)N[*:1])[*:2]; X3 = CC[C@H](C)N(N[*:1])C(=O)[*:2]; X2 = O=C(O)CCN(N[*:1])C(=O)[*:2]; AzaAla = CN(N[*:1])C(=O)[*:2]; azaGly = NNC(=O)O
quantity: Activity (%)
Answers are plain numbers, in %.

Worked set:
CC[C@H](C)[C@H](NC(=O)[C@H](CC(=O)O)NC(C)=O)C(=O)NN(Cc1ccc(O)c(O)c1)C(=O)N[C@@H](CCC(=O)O)C(=O)N[C@H](C(N)=O)[C@@H](C)O (Ac-DI[X1]ET-NH2) ... 128
CC[C@H](C)[C@H](NC(=O)[C@H](CC(=O)O)NC(C)=O)C(=O)NN(Cc1ccccc1)C(=O)N[C@@H](CCC(=O)O)C(=O)N[C@H](C(N)=O)[C@@H](C)O (Ac-DI[azaPhe]ET-NH2) ... 67

# batch: return Activity for each of the 5 molecules below
1. CC(=O)N[C@@H](CC(=O)O)C(=O)NN(C)C(=O)N[C@@H](Cc1ccc(O)cc1)C(=O)N[C@@H](CCC(=O)O)C(=O)N[C@H](C(N)=O)[C@@H](C)O (Ac-D[AzaAla]YET-NH2)
2. CC[C@H](C)N(NC(=O)[C@H](CC(=O)O)NC(C)=O)C(=O)N[C@@H](Cc1ccc(O)cc1)C(=O)N[C@@H](CCC(=O)O)C(=O)N[C@H](C(N)=O)[C@@H](C)O (Ac-D[X3]YET-NH2)
3. CC(=O)N[C@@H](CC(=O)O)C(=O)NNC(=O)N[C@@H](Cc1ccc(O)cc1)C(=O)N[C@@H](CCC(=O)O)C(=O)N[C@H](C(N)=O)[C@@H](C)O (Ac-D[azaGly]YET-NH2)
4. CC[C@H](C)[C@H](NC(=O)[C@H](CC(=O)O)NC(C)=O)C(=O)NN(Cc1ccc(O)cc1)C(=O)N[C@@H](CCC(=O)O)C(=O)N[C@H](C(N)=O)[C@@H](C)O (Ac-DI[azaTyr]ET-NH2)
5. CC[C@H](C)[C@H](NC(=O)[C@H](CC(=O)O)NC(C)=O)C(=O)N[C@@H](Cc1ccc(O)cc1)C(=O)NN(CCC(=O)O)C(=O)N[C@H](C(N)=O)[C@@H](C)O (Ac-DIY[X2]T-NH2)

Result:
74
73
61
40
110
